# SYSTEM_UNDER_TEST: Phosphorylase b kinase gamma catalytic chain, liver/testis isoform (Homo sapiens);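 note: values are mean inhibition of PHKG2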
# EXPERIMENTAL_CONTEXT: at 0.1 µM
Recorded inhibition by entry
MEASURED_PARAMETER: inhibition (%)

| MOLECULE | UNITS_TEXT | QUANTITATIVE_RESULT |
| --- | --- | --- |
| COc1ccc2ncn(-c3cc(O[C@H](C)c4ccccc4C(F)(F)F)c(C(N)=O)s3)c2c1 | % | -1.44 |
| FC(F)(F)CNc1nccc(-c2cnn3ncccc23)n1 | % | 3.98 |
| CS(=O)(=O)CCNCc1ccc(-c2ccc3ncnc(Nc4ccc(OCc5cccc(C(F)(F)F)c5)cc4)c3c2)o1 | % | 5.95 |
| COc1ccc(Nc2ncc(-c3ccccc3)o2)cc1OC | % | 0.22 |
| COc1cc(N2CCN(C(C)C)CC2)ccc1Nc1nc(Nc2cccc3ncccc23)c2cc[nH]c2n1 | % | -1.68 |
| CN(C)CCNC(=O)Nc1ccc(N(C)c2ccnc(Nc3ccc(CS(C)(=O)=O)cc3)n2)cc1 | % | 4.64 |
| NC(=O)c1ccc2c(-c3ccnc(NCCCO)n3)c(-c3ccc(F)cc3)nn2c1 | % | 5.28 |
| CC1(C)CC(n2cnc(-c3ccc(F)cc3)c2-c2ccnc(N)n2)CC(C)(C)N1 | % | -0.42 |
| COC(=O)Nc1nc2ccc(Oc3ccc(NC(=O)Nc4cc(C(F)(F)F)ccc4F)cc3)cc2s1 | % | -0.83 |
| Cc1ccc(-c2cc3c(NC(=O)C4CC4)ncnc3o2)cc1 | % | 4.46 |
| COc1cc(Nc2ncc(-c3ccccc3)o2)cc(OC)c1 | % | 4.54 |
| CCN1CCC(C(=O)Nc2n[nH]c3nnc(-c4cccc(F)c4F)cc23)CC1 | % | -0.86 |
| COc1c(C(N)=O)cc(-c2ccc(Cl)cc2)cc1-c1ccc(S(N)(=O)=O)cc1 | % | 3.72 |
| COC(=O)Nc1nc2cc(Oc3ccc(NC(=O)Nc4ccccc4)cc3)ccc2[nH]1 | % | 4.43 |
| CCS(=O)(=O)c1ccc(OC)c(Nc2ncc(-c3cccc(C(C)=O)c3)o2)c1 | % | 3.37 |
| CC1=C(C(=O)Nc2ccc3[nH]ncc3c2)C(c2ccc(F)cc2)N=C(c2ccc(C(F)(F)F)nc2)N1 (stereo not given) | % | 1.74 |
| O=C(O[C@H]1CN[C@H](C#Cc2cc3ncnc(Nc4ccc5c(ccn5Cc5cc(F)ccc5F)c4)c3s2)C1)N1CCOCC1 | % | 4.96 |
| NS(=O)(=O)c1ccc(N/N=C2\C(=O)Nc3ccc(C(=O)NCc4ccncc4)cc32)cc1 | % | 4.99 |
| O=C(O[C@H]1CN[C@H](C#Cc2cc3ncnc(Nc4ccc(OCc5cccc(F)c5)c(Cl)c4)c3s2)C1)N1CCOCC1 | % | 7.04 |
| NS(=O)(=O)c1ccc(N/N=C2\C(=O)Nc3cccc(CCc4ccncc4)c32)cc1 | % | 0.33 |

Origin of values: ChEMBL document CHEMBL1961873
